Heads up, these molecules all have pIC50 values measured for DGKζ (Homo sapiens (Human)).
pIC50: −log10 of the molar value.
valueKind: pIC50

[1] CC[C@H]1CN(C(C)c2ccc3c(n2)CCC3)[C@H](CC)CN1c1cc(=O)n(C)c2cn(CC#N)nc12 (some centres unmarked)
[2] CC[C@H]1CN(C(C)c2cc3sc(C)nc3cc2F)[C@H](CC)CN1c1nc(=O)n(C)c2cn(CC#N)nc12 (single isomer, unassigned) [Compound A128b]
For 1 and 2 , which recorded pIC50 is lower? Lab log: write the label of the selected item as the result. 2

[A] CC#CCn1cc2c(n1)c(N1C[C@@H](CC)N(C(C)c3ccc4nc(C)sc4c3)C[C@@H]1C)cc(=O)n2C (single isomer, unassigned) [Compound A115a]
[B] CC[C@H]1CN(C(C)c2cc(F)c(C3CC3)cn2)[C@H](CC)CN1c1cc(=O)n(C)c2cn(CC#N)nc12 (some centres unmarked)
[C] CC[C@H]1CN(C(C)c2ccc3nc(C)sc3n2)[C@H](CC)CN1c1c(C#N)c(=O)n(C)c2cn(CC#N)nc12 (single isomer, unassigned) [Compound A140a]
Descending sort on pIC50 required. Form entry: ranked labels (order as requested). B, A, C
(B: 7.68, A: 6.37, C: 5.47)

[P] CC[C@H]1CN(C(C)c2cc3scnc3cc2F)[C@H](CC)CN1c1cc(=O)n(C)c2cn(CC#N)nc12 (single isomer, unassigned) [Compound A103a]
[Q] CC[C@H]1CN(C(C)c2ccc(OC3COC3)c(F)c2)[C@H](CC)CN1c1cc(=O)n(C)c2cn(CC#N)nc12 (single isomer, unassigned) [Compound A23b]
Two entries are listed, P and Q . Which one carries the higher pIC50? Give the chosen item's label as your response. P

Just for reference, patent US20250346597A1 is where these values come from.
